- condition context: mouse, in vivo, ip
Bridge positions count the residues as written; N and C are the ends. Square brackets hold non-standard residues; d marks the D form. Peptide text beside a SMILES is read from it. * marks the point of attachment. Hexadecanoyl(3R-OH) = CCCCCCCCCCCCC[C@@H](O)CC(=O)*; d(aThr) = C[C@@H](O)[C@@H](N)C(=O)O; dOrn = NCCC[C@@H](N)C(=O)O

[
  {
    "molecule": "CCCCCCCCCCCCC[C@@H](O)CC(=O)N[C@@H](CCC(=O)O)C(=O)N[C@H](CCCN)C(=O)N[C@H]1Cc2ccc(cc2)OC(=O)[C@H]([C@@H](C)CC)NC(=O)[C@@H](Cc2ccc(O)cc2)NC(=O)[C@H](CCC(N)=O)NC(=O)[C@@H]2CCCN2C(=O)[C@@H](C(C)C)NC(=O)[C@H](CCC(=O)O)NC(=O)[C@@H]([C@@H](C)O)NC1=O [Plipastatin B1] ({Hexadecanoyl(3R-OH)}-E[dOrn]Y[d(aThr)]E[dV]PQ[dY]I; ester 3-C)",
    "LD50": "250 to 500 mg/kg"
  }
]

The measurements presented in this section are drawn from patent US4742155A.
